Just for reference, paper PMC7392018 is where these values come from.

Test system: chymotrypsin
METHOD NOTES: Proteolysis resistance to chymotrypsin by HPLC
Format: in vitro ADME
CONDITION CONTEXT: chymotrypsin with 10% serum in PBS, PBS containing 10 mM oxidized glutathione, 0.5 mg/ml chymotrypsin, read-out: t1/2 of proteolysis (converted)
ENDPOINT: half-life (min)
Give the quantity in min, number only.

What measured half-life goes with CC(=O)N[C@H](C(=O)N[C@@H](CO)C(=O)N[C@@H](Cc1ccccc1)C(=O)N[C@@H](C)C(=O)N[C@@H](CCC(=O)O)C(=O)N[C@@H](Cc1ccc(O)cc1)C(=O)N[C@@H](Cc1c[nH]c2ccccc12)C(=O)N[C@@H](C)C(=O)N[C@@H](CC(C)C)C(=O)N[C@@H](CC(C)C)C(=O)N[C@@H](CO)C(=O)N1CCC[C@H]1C(=O)N[C@@H](CS)C(=O)O)[C@@H](C)O ?
9
